- assayed.target: Arginase-2, mitochondrial (Homo sapiens)
- test.description: in vitro enzyme assay to detect the production of urea directly proportional to the activity of Arginase II; also: in the data most compounds retested in dose-response had high values
- Assay type: functional
- Set-up: scale not given: direction of the effect not stated beside the values
- details: 33.3 µM
reported.metric: Percent Effect (%)
# unit: % | format: bare number

Below: 3 compounds and their reported Percent Effect.
Cc1nc(NC2CCCC2)cc(C2CCN2C(=O)c2ccccc2)n1 (configuration not stated) : -1.62
O=S(=O)(c1ccccc1)N1CCCCC1c1cc[nH]n1 (configuration not stated) : -1.77
c1cn2c(n1)CN(CC1CC1)CC(CN1CCOCC1)C2 (configuration not stated) : -2.43

Measured Percent Effect of "Cc1cc2c(=O)n3c(nc2s1)CCN(Cc1cnn(C)c1C)CC3" : 2.09

Measured Percent Effect of "O=C(C1CCCCC1)N1CCC2(CCCN2CC2CC2)CC1" : 1.37

Measured Percent Effect of "CC(C)c1cc(C(=O)N(C)Cc2cccc3ncccc23)n(C)n1" : -1.77

Measured Percent Effect of "CCC1=N[C@@]2(CC[C@@H]3CN(C(=O)NCc4ccccc4)C[C@@H]32)C(=O)N1" : -4.86

Measured Percent Effect of "Cc1ccc(NC(=O)N2C[C@H]3CC[C@@H]2CN(Cc2cscn2)C3)cc1" : 5.25

Measured Percent Effect of Cc1cnn(CC2CCCN2C(=O)Cc2n[nH]c3ccccc23)c1 (configuration not stated) : 7.61

Measured Percent Effect of CCc1csc(C2CCCN(C(=O)c3cnn(CC)c3)C2)n1 (configuration not stated) : 3.55

----------
- assayed.target: AMP-activated protein kinase, AMPK (Homo sapiens) (UniProt P54646+O43741+P54619+Q9UGJ0+Q9Y478+Q13131+Q9UGI9)
- test.description: AMP-dependent Kinase enzyme assay. An in vitro enzyme assay that detects ADP turnover that is directly proportional to AMPK activity. This uses naive AMPK that is activated during the assay with MK-8722
- Type: functional
- Set-up: scale not given: direction of the effect not stated beside the values
- details: 30 µM
reported.metric: Percent Effect

CC(C)c1cc(NC(=O)c2ccc(C(=O)NC(C)(C)C)cc2)[nH]n1 : 112%
OC(COCc1ccc(Cl)cc1)CN1CCC(c2ccn[nH]2)CC1 (stereo unspecified) : -9.18%
COc1ccc(OC)c(-c2nc(CN(C)Cc3nncn3C)c(C)o2)c1 : 12%
CSC(C)C(=O)N1CCCN(Cc2cnn(C(C)C)c2)CC1 (stereo unspecified) : -6.76%
O=C(C1CCOCC1)N1C[C@@H]2[C@@H](C1)OCC(=O)N2Cc1ccncc1 : -1.14%

# input for lookup
Measured Percent Effect of "COc1ccc(NC(=O)c2ccc(-n3ncc(C#N)c3N)cc2)cn1" : 0.744%

----------
Reported values of Percent Effect for individual entries
- assayed.target: Proteasome subunit beta (Trypanosoma cruzi)
- test.description: Trypanosoma cruzi proteasome chymotrypsin-like activity (TcProtChymo) assay. Also: in the data most compounds retested in dose-response had high values.
- Assay type: functional
- Parameters: scale not given: direction of the effect not stated beside the values
- details: 9.37 µM
# unit: % | format: bare number

CCn1cc(NC(=O)CCc2ccc3c(c2)OCCCO3)cn1 : 2.28
c1csc(-c2nc(CNC3CCc4ncnn4C3)cs2)c1 (configuration not stated) : 7.93

Measured Percent Effect of O=C1C(NCc2nnc3n2CCCC3)CCN1c1ccccc1 (configuration not stated) : -2.99

Measured Percent Effect of "CN(C)CCN1CCCC12CCN(C(=O)c1cccn1C)CC2" : 0.618

Measured Percent Effect of "O=C(Cc1ccccn1)N1CCc2nc(-c3cnccn3)nc(O)c2C1" : 12.6

Measured Percent Effect of CCOc1ncccc1C(=O)N1CCCC1c1c(C)nn(C)c1OC (configuration not stated) : -2.81

Measured Percent Effect of "Cc1ccccc1N1CCCN(C(=O)CCCS(N)(=O)=O)CC1" : 23.8

Measured Percent Effect of "O=C(NCCNc1ncccn1)N(Cc1ccc(F)cc1F)C1CC1" : -3.03

Measured Percent Effect of "Cc1ccc(C)c(-n2ccc3nc(N4CCCC4)ncc3c2=O)c1" : -2.96

Measured Percent Effect of "Cn1cc(CN2CCC3(CCCN3S(C)(=O)=O)CC2)cn1" : 1.15

Measured Percent Effect of "CCCNC(=O)c1ccc2c(c1)C(=O)N(CC(C)C)C2=O" : 3.45

Measured Percent Effect of "COC[C@@]12CCO[C@@H]1CCN(C(=O)Cc1ccccc1F)C2" : 12.2
